The origin of these recorded values is paper PMC3362575.

test system: MRC-5; assay: MTT cytotoxicity assay, MRC-5 fetal lung fibroblast; format: cell-based, human; conditions: Homo sapiens, MRC5, Table 2, synthesized phenanthrenes, normal fetal lung fibroblast
Endpoint: IC50

{"Compound": "COc1cc2ccc3c(OC)ccc(OC)c3c2c(O)c1OC", "Target Or System": "MRC-5", "Endpoint Value": "> 20 µg/mL"}
{"Compound": "COC1=CC(=O)c2ccc3c(-c4c(OC)c(OC)c(OC)c5c6c(ccc45)C(OC)=CC(=O)C6=O)c(OC)c(OC)c(OC)c3c2C1=O", "Target Or System": "MRC-5", "Endpoint Value": "> 20 µg/mL"}
{"Compound": "COC1=CC(=O)c2ccc3cc(OC)cc(O)c3c2C1=O", "Target Or System": "MRC-5", "Endpoint Value": "2.14 µg/mL"}
{"Compound": "COC1=CC(=O)c2ccc3cc(OC)cc(OC(C)=O)c3c2C1=O", "Target Or System": "MRC-5", "Endpoint Value": "2.64 µg/mL"}
{"Compound": "COc1cc(O)c2c(ccc3c(OC)ccc(OC)c32)c1 [Compound 9b, 5-hydroxy-1,4,7-trimethoxy-phenanthrene]", "Target Or System": "MRC-5", "Endpoint Value": "> 20 µg/mL"}
{"Compound": "COc1cc2ccc3c(OC)ccc(OC)c3c2c(O)c1O", "Target Or System": "MRC-5", "Endpoint Value": "> 20 µg/mL"}
{"Compound": "COC1=CC(=O)c2ccc3cc(OC)c(OC)c(OC)c3c2C1=O", "Target Or System": "MRC-5", "Endpoint Value": "> 20 µg/mL"}
{"Compound": "COc1cc2ccc3c(OC)ccc(OC)c3c2c(OC)c1OC", "Target Or System": "MRC-5", "Endpoint Value": "> 20 µg/mL"}
{"Compound": "COC1=CC(=O)c2ccc3cc(OC)cc(OC)c3c2C1=O", "Target Or System": "MRC-5", "Endpoint Value": "> 20 µg/mL"}
{"Compound": "COc1cc(OC)c2c3c(ccc2c1)C(=O)CC(OC)(OC)C3=O", "Target Or System": "MRC-5", "Endpoint Value": "> 20 µg/mL"}
{"Compound": "COC1=CC(=O)c2ccc3cc(OC)c(OC)c(OC(C)=O)c3c2C1=O", "Target Or System": "MRC-5", "Endpoint Value": "1.14 µg/mL"}
